# System: HCC-2998 colon
# Protocol text: NCI-60 one-dose screen, 48 h
# Particulars: 10 µM unless noted
# Description: Growth inhibition of the HCC-2998 human tumor cell line is measured as a screen for anti-cancer activity. Cells are grown in 96 well plates and exposed to the test compound for 48 hours. Compounds are tested at a single concentration, which is 10^-5 M for most compounds. The reported endpoint is percent growth (GI% or GIPRCNT), where numbers from 0 - 100% represent growth inhibition, and numbers from -100% - 0 represent cell death. For example, a value of 40 represents 60% growth inhibition. […]
About 83,000 compounds went through this panel and 20% of them were active in at least one assay; those are over-represented in the sample as a whole. Calls of active or inactive are those of the source. Rule for the calls: active = growth percent below 10; inactive = the rest.
Classes to choose from: 1 for active, 0 for inactive

Below, 8 compounds whose answers are already recorded.
Compound | Target of assay | Label value
Cc1[nH]n(C(N)=S)c(=O)c1N=Nc1ccc(F)c(Cl)c1 | HCC-2998 colon | 0
CC(C)C(=O)Cc1cnccn1 | HCC-2998 colon | 0
CCCCCCOc1ccc(/C=N/NC(N)=S)cc1 | HCC-2998 colon | 0
CC1CC(C)/C(=N/NC(N)=O)C(C(O)CC2CCC(=O)NC2=O)C1 (stereo not drawn) | HCC-2998 colon | 0
O=C(Nc1ccc(Cl)cc1Cl)Nc1ccc(-c2cccnc2)cc1N1CCC(CO)CC1 | HCC-2998 colon | 0
CC(=O)NC1(C(=O)O)CCCC1 | HCC-2998 colon | 0
ClC1C2CC(c3ccccc32)C1Cl (stereo not drawn) | HCC-2998 colon | 0
C[n+]1c2ccccc2c(NC2CCNCC2)c2[nH]c3ccccc3c21 | HCC-2998 colon | 1

Here's the next entry for you.
Query string: Please indicate how the test categorized O=C(Nc1ccc(C2=NCCCN2)cc1)Nc1ccc(C2=NCCCN2)cc1 .
Result string: 0
